# MEASUREMENT TARGET: T1, recombinant human TfR-1, His-tagged (Sino Biological 11020-H07H) (human, UniProt P02786 89-760)
# T1 construct: bought; His-tagged; also called hTfR1; hTfR-1
# T1 sequence (P02786 89-760 limits assumed): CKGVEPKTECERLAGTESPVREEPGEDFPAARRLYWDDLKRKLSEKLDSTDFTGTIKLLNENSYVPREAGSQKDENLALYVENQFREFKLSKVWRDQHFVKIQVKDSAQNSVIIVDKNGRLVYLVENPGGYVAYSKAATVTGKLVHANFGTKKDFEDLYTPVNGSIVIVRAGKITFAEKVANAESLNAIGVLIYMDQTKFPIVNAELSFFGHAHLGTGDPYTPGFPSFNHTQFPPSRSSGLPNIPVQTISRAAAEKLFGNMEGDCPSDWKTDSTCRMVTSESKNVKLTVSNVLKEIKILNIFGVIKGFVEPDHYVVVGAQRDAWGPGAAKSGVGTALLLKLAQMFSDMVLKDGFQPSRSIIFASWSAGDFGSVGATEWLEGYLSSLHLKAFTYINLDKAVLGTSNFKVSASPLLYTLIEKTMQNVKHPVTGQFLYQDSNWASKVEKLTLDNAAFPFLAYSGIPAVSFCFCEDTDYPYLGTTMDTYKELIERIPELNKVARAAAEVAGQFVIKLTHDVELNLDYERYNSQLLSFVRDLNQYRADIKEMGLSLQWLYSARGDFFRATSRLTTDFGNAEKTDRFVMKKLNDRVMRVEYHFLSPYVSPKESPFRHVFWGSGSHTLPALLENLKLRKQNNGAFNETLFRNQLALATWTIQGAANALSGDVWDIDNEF
# EXPERIMENT: SPR, His-captured TfR1
Reported koff is given for each of the following binders.
REPORTED ENDPOINT: koff (s⁻¹)

1. Clone C variant 5 VNAR-hFc (Fc fusion, not shown: a dimerising Fc or GST) ARVDQTPQTITKETGESLTINCVLRDSNCALSSTYWYRKKSGSTNEENISKGGRYVETVNSGSKSFSLRINDLTVEDSGTYRCNVVQSPSYNNYFWCDVYGDGTAVTVN    0.000302
2. Clone C variant 15 VNAR-hFc (Fc fusion, not shown: a dimerising Fc or GST) ARVDQTPQTITKETGESLTINCVLRDSNCALSSTYWYRKKSGSTNEENISKGGRYVETVNSGSKSFSLRINDLTVEDSGTYRCNVVQYPQQPNYFWCDVYGDGTAVTVN    5.78e-05
